Numbers sourced from patent US7759345B2.

Reported Toxicity Data Heart, Heart.

Examples from the recorded data:
COMPOUND	Toxicity Data Heart
CCOc1cc2c(cc1OC)[C@@]1(CS[C@@H]3c4c(OC(C)=O)c(C)c5c(c4[C@H](COC1=O)N1C3[C@H]3c4c(cc(C)c(OC)c4O)C[C@@H]([C@@H]1O)N3C)OCO5)NCC2 (stereo partly drawn) [Compound 68]	1.13E-08
CCN1CCc2cc(O)c(OC)cc2[C@@]12CS[C@@H]1c3c(OC(C)=O)c(C)c4c(c3[C@H](COC2=O)N2C1[C@H]1c3c(cc(C)c(OC)c3O)C[C@@H]([C@@H]2O)N1C)OCO4 (stereo partly drawn) [Compound 94]	6.66E-08

Now consider a different compound.
q: Quick one: give measured Toxicity Data Heart for COc1cc2c(cc1OC(=O)/C=C/c1ccccc1)CCN[C@]21CS[C@@H]2c3c(OC(C)=O)c(C)c4c(c3[C@H](COC1=O)N1C2[C@@H]2N[C@@H](Cc3cc(C)c(OC)c(O)c32)[C@@H]1O)OCO4 (stereo partly drawn) [Compound 212]
a: 3.20E-08
